Each recorded value in this set is attributed to PubChem BioAssay (NCATS).

EXPERIMENT SUMMARY: Quantitative High-Throughput drug screen in 47 multiple myeloma cell lines against the NCATS MIPE library collection: ARP1_JJKsccF8 cell viability assay (AID 1918928; further: potency means the concentration at half of the fitted maximal effect; nearly all actives have a fitted effect of over 40% in size)
REPORTED CONDITIONS: ARP1 myeloma cells viability, CellTiter-Glo ATP, 48 h; series mostly up to 45.8 µM
Results filed as inconclusive are left out. Active and inactive are the calls of the source. The call rests on the fitted dose curve; in most records, active means well fitted cell-killing curve with a large enough effect; inconclusive means small, poorly fitted or top-dose-only effect, or effect the other way; inactive means no such curve, though single readings can be large or run the other way.
compounds and their reported Potency

Nc1nc(=O)n([C@H]2C[C@H](O)[C@@H](CO)O2)cc1F
0.526 µM (active)
COc1cc(CCc2cc(NC(=O)c3ccc(N4C[C@@H](C)N[C@@H](C)C4)cc3)n[nH]2)cc(OC)c1
18.7 µM (active)
COc1ccc2c(c1OC)C(=O)OC2[C@H]1c2c(cc3c(c2OC)OCO3)CCN1C (some centres undefined)
0.0526 µM (active)

Switching to the query record.
Query block: Could you share which Potency value was measured for CCOc1cc2ncc(C#N)c(Nc3ccc(OCc4ccccn4)c(Cl)c3)c2cc1NC(=O)C=CCN(C)C ?
Result block: 14.8 µM (active)
